- Protocol Details: 1-Octanol-phosphate buffer apparent partition coefficient, log P of the compound at pH 7.4
- Type: physicochemical
Result Type: logD
Please respond with just the number, no unit label.

CC(=O)Nc1ccc(OCC(O)CNC(C)C)cc1 (racemic): -1.05
COc1ccc(CCN[C@H](C)[C@@H](O)COc2ccccc2)cc1OC.Cl (racemic): 1.66
Cc1ccc([C@@H](O)[C@H](C)NC(C)C)cc1 (racemic): 0.149
CC(C)N[C@@H](C)[C@@H](O)COc1ccccc1.O=C(O)C(=O)O (racemic): -0.244
CC(C)N[C@H](c1ccccc1)[C@@H](O)COc1ccccc1 (racemic): 2.1
CC(C)N[C@H](C)[C@@H](O)COc1ccccc1.Cl (racemic): -0.244
COc1ccc(CCNCC(O)COc2ccccc2)cc1OC.Cl (racemic): 1.7
Cc1ccc(OCC(O)CNC(C)C)cc1 (racemic): 0.423

# next compound below
### Prompt Using the record for CC(C)NCC(O)COc1ccccc1 (racemic) , report its logD.
### Response -0.137

Cited source for all entries: ChEMBL document CHEMBL3244234
